Origin of measurements: paper PMC10163920

- assayed target: profilin-1 Q139L (ALS-associated variant) (UniProt P07737 1-140, Q139L)
- Sequence (P07737 whole entry Q139L): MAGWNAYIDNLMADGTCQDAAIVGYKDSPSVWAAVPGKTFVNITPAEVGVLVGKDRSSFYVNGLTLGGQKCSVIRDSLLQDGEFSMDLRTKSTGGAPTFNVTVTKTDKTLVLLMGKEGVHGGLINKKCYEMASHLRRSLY
- procedure details: fluorescence polarisation
pKd: −log10 of the molar value. Ends that are not written are not given here.
measured property: pKd

binder="IPPPPPLPGVASIPPPPPLPG (also: FITC, position not given here) [FITC-mDia1-derived poly-L-proline (PLP) peptide]" measured_property=pKd quantitative_result=5.46
